System: mock-infected MT4 cells
Procedure Text: in vitro
Method: HIV- or mock-infected MT4 cells were incubated for five days in the presence of various concentrations of the inhibitor. […] Cell viability is measured by measuring the concentration of MTT, a yellow, water soluble tetrazolium dye that is converted to a purple, water insoluble formazan in the mitochondria of living cells only. Upon solubilization of the resulting formazan crystals with isopropanol, the absorbance of the solution is monitored at 540 nm. […]
Please go through the items and note down their Tox (pCC50).

// recorded Tox (pCC50) for Cc1cccc(C)c1OCC(=O)N[C@@H](Cc1ccccc1)[C@H](O)CN(CC(C)C)S(=O)(=O)c1ccc2nc[nH]c2c1 [Compound 29] : 4.21

The value of Tox (pCC50) measured for the compound CC(C)CN(C[C@@H](O)[C@H](Cc1ccccc1)NC(=O)OCc1cncs1)S(=O)(=O)c1ccc2ncn(CC(C)C)c2c1 [Compound 32] turned out to be 4.2

Entry CC(C)CN(CC(O)C(Cc1ccccc1)NC(=O)OC1COC2OCCC12)S(=O)(=O)c1ccc2nc(N)n(C)c2c1 (stereo not shown) [Compound 41] ; Tox (pCC50) = <4

Hello, I would appreciate it if you could give Tox (pCC50) for each entry below.
1. Cc1cccc(C)c1OCC(=O)N[C@@H](Cc1ccccc1)[C@H](O)CN(CC(C)C)S(=O)(=O)c1ccc2nc(N)n(C)c2c1 [Compound 13]
2. CC(C)CN(C[C@@H](O)[C@H](Cc1ccccc1)NC(=O)O[C@H]1CCOC1)S(=O)(=O)c1ccc2ncn(C)c2c1 [Compound 16]

Data returned:
["<4", "<4.49"]

For each listed entry, give its Tox (pCC50).
1. CC(=O)Nc1nc2ccc(S(=O)(=O)N(CC(C)C)C[C@@H](O)[C@H](Cc3ccccc3)NC(=O)O[C@H]3CCOC3)cc2[nH]1 [Compound 27]
2. CC(C)CN(C[C@@H](O)[C@H](Cc1ccccc1)NC(=O)O[C@H]1CCOC1)S(=O)(=O)c1ccc2nc(N)[nH]c2c1 [Compound 53]
3. CC(C)CN(C[C@@H](O)[C@H](Cc1ccccc1)NC(=O)O[C@H]1CCOC1)S(=O)(=O)c1ccc2nc(NC(=O)NCCN(C)C)[nH]c2c1 [Compound 52]
4. CC(C)CN(C[C@@H](O)[C@H](Cc1ccccc1)NC(=O)OC1COC2OCCC12)S(=O)(=O)c1ccc2nc(NC(=O)NCCN(C)C)[nH]c2c1 (stereo partly shown) [Compound 58]
5. CC(C)CN(C[C@@H](O)[C@H](Cc1ccccc1)NC(=O)O[C@H]1CCOC1)S(=O)(=O)c1ccc2nc[nH]c2c1 [Compound 42]
6. CC(C)CN(C[C@@H](O)[C@H](Cc1ccccc1)NC(=O)OCc1cncs1)S(=O)(=O)c1ccc2nc[nH]c2c1 [Compound 23]
7. CC(C)CN(CC(O)C(Cc1ccccc1)NC(=O)OC1COC2OCCC12)S(=O)(=O)c1ccc2nc(CO)[nH]c2c1 (stereo not shown) [Compound 56]
8. Cc1cccc(C)c1OCC(=O)N[C@@H](Cc1ccccc1)[C@H](O)CN(CC(C)C)S(=O)(=O)c1ccc2ncn(CC(C)C)c2c1 [Compound 45]

Data returned:
1. <4
2. 4.05
3. <5
4. <4
5. <4
6. <4
7. <4
8. <4

---

Would you kindly list FR towards mutant D for each of these molecules?
Test system: mutant D
Procedure Text: Antiviral spectrum, fold resistance towards mutant D
Assay type: cell-based
Recorded Conditions: FR=IC50(mutant strain)/IC50(HIV-1 strain LAI)
Give bare numbers.

Answered cases to consult:
Record summary for CC(C)CN(C[C@@H](O)[C@H](Cc1ccccc1)NC(=O)O[C@H]1CCOC1)S(=O)(=O)c1ccc2ncn(CCc3ccccc3)c2c1 [Compound 15] : reported FR towards mutant D = 5.4

Just so you know, measured FR towards mutant D for CC(C)CN(CC(O)C(Cc1ccccc1)NC(=O)OC1COC2OCCC12)S(=O)(=O)c1ccc2nc(CO)[nH]c2c1 (stereo not shown) [Compound 56] came out at 0.18

// sample CC(C)CN(C[C@@H](O)[C@H](Cc1ccccc1)NC(=O)O[C@H]1CCOC1)S(=O)(=O)c1ccc2ncn(C)c2c1 [Compound 16] , its FR towards mutant D was 5.9

# molecule Cc1cccc(C)c1OCC(=O)N[C@@H](Cc1ccccc1)[C@H](O)CN(CC(C)C)S(=O)(=O)c1ccc2nc(N)n(C)c2c1 [Compound 13] ; its FR towards mutant D = 3.4

Memo: COC(=O)Nc1nc2ccc(S(=O)(=O)N(CC(C)C)C[C@@H](O)[C@H](Cc3ccccc3)NC(=O)c3ccc([N+](=O)[O-])cc3C)cc2[nH]1 [Compound 11] , reported FR towards mutant D: 3.5

Lookup result for COC(=O)Nc1nc2ccc(S(=O)(=O)N(CC(C)C)C[C@@H](O)[C@H](Cc3ccccc3)NC(=O)COc3c(C)cc(N(C)C)cc3C)cc2[nH]1 [Compound 19] ; measured FR towards mutant D: 3.6

I would be grateful if you could provide FR towards mutant D for each of the following entries.
1. CC(C)CN(CC(O)C(Cc1ccccc1)NC(=O)OC1COC2OCCC12)S(=O)(=O)c1ccc2ncn(CCc3ccccc3)c2c1 (stereo not shown) [Compound 5]
2. COC(=O)Nc1nc2ccc(S(=O)(=O)N(CC(C)C)C[C@@H](O)[C@H](Cc3ccccc3)NC(=O)COc3c(C)cc(C#N)cc3C)cc2[nH]1 [Compound 12]
3. CC(C)CN(C[C@@H](O)[C@H](Cc1ccccc1)NC(=O)O[C@H]1CO[C@H]2OCC[C@H]21)S(=O)(=O)c1ccc2ncn(Cc3ccccc3)c2c1 [Compound 1]
4. CC(C)CN(C[C@@H](O)[C@H](Cc1ccccc1)NC(=O)O[C@H]1CCOC1)S(=O)(=O)c1ccc2nc(NC(=O)NCCN(C)C)[nH]c2c1 [Compound 52]
5. CC(=O)Nc1nc2ccc(S(=O)(=O)N(CC(C)C)C[C@@H](O)[C@H](Cc3ccccc3)NC(=O)OC3COC4OCCC34)cc2[nH]1 (stereo partly shown) [Compound 38]
6. CC(C)CN(C[C@@H](O)[C@H](Cc1ccccc1)NC(=O)OCc1cncs1)S(=O)(=O)c1ccc2nc[nH]c2c1 [Compound 23]
7. COC(=O)Nc1nc2ccc(S(=O)(=O)N(CC(C)C)C[C@@H](O)[C@H](Cc3ccccc3)NC(=O)COc3c(C)cccc3C)cc2[nH]1 [Compound 8]

Data returned:
1.9
7.9
1.5
3.0
0.19
2.5
1.9

---

Tested on: mutant A
Format: cell-based
Recorded Conditions: FR=IC50(mutant strain)/IC50(HIV-1 strain LAI)
Classify as follows. Reported FR value towards mutant A greater than or equal to 3: condition met. Reported FR value towards mutant A below: condition not met.

Here's what some known entries look like.
Data request: Textbook exercise: given the entry `CC(C)CN(C[C@@H](O)[C@H](Cc1ccccc1)NC(=O)OCc1cncs1)S(=O)(=O)c1ccc2nc[nH]c2c1` , state whether its FR value towards mutant A is greater than or equal to 3.
Data returned: condition met

Data request: Given the entry `CC(C)CN(C[C@@H](O)[C@H](Cc1ccccc1)NC(=O)OCc1cncs1)S(=O)(=O)c1ccc2nc(N)[nH]c2c1` , answer whether its FR value towards mutant A meets or surpasses 3.
Data returned: condition not met

Data request: Hi, just wondering whether `Cc1cccc(C)c1OCC(=O)N[C@@H](Cc1ccccc1)[C@H](O)CN(CC(C)C)S(=O)(=O)c1ccc2ncn(CC(C)C)c2c1` shows FR value towards mutant A of 3 or higher.
Data returned: condition met

Data request: Please indicate if the recorded FR value towards mutant A for `CC(C)CN(C[C@@H](O)[C@H](Cc1ccccc1)NC(=O)OCc1cccnc1)S(=O)(=O)c1ccc2nc[nH]c2c1` meets or exceeds 3.
Data returned: condition met

Data request: Tell me whether FR value towards mutant A is at least 3 here: CC(C)CN(CC(O)C(Cc1ccccc1)NC(=O)OC1COC2OCCC12)S(=O)(=O)c1ccc2ncn(Cc3cncn3C)c2c1 (stereo not drawn)
Data returned: condition not met

We next turn to a different molecule, shown below.
Data request: Does `COc1ccc(C(=O)Nc2nc3ccc(S(=O)(=O)N(CC(C)C)C[C@@H](O)[C@H](Cc4ccccc4)NC(=O)COc4c(C)cccc4C)cc3[nH]2)cc1` have a reported FR value towards mutant A of at least 3?
Data returned: condition not met

---

System: mutant E
Assay type: cell-based
Recorded Conditions: FR=IC50(mutant strain)/IC50(HIV-1 strain LAI)
Exercise: state measured FR towards mutant E for each of the compounds provided.
Give bare numbers.

FR towards mutant E recorded for this compound, `COc1ccc(C(=O)Nc2nc3ccc(S(=O)(=O)N(CC(C)C)C[C@@H](O)[C@H](Cc4ccccc4)NC(=O)COc4c(C)cccc4C)cc3[nH]2)cc1` , is 1.3

// field: FR towards mutant E; key: `Cc1cccc(C)c1OCC(=O)N[C@@H](Cc1ccccc1)[C@H](O)CN(CC(C)C)S(=O)(=O)c1ccc2nc(N)n(C)c2c1` ; value = 4.5

List the reported FR towards mutant E of each compound below.
1. COC(=O)Nc1nc2ccc(S(=O)(=O)N(CC(C)C)C[C@@H](O)[C@H](Cc3ccccc3)NC(=O)COc3c(C)cccc3C)cc2[nH]1 [Compound 8]
2. CC(C)CN(C[C@@H](O)[C@H](Cc1ccccc1)NC(=O)O[C@H]1CO[C@H]2OCC[C@H]21)S(=O)(=O)c1ccc2nc(NCCN3CCCC3)n(CCc3ccccc3)c2c1

Data returned:
1. 2.3
2. 4.0
